molecular target: UniProtKB P11712
Sequence (P11712 whole entry): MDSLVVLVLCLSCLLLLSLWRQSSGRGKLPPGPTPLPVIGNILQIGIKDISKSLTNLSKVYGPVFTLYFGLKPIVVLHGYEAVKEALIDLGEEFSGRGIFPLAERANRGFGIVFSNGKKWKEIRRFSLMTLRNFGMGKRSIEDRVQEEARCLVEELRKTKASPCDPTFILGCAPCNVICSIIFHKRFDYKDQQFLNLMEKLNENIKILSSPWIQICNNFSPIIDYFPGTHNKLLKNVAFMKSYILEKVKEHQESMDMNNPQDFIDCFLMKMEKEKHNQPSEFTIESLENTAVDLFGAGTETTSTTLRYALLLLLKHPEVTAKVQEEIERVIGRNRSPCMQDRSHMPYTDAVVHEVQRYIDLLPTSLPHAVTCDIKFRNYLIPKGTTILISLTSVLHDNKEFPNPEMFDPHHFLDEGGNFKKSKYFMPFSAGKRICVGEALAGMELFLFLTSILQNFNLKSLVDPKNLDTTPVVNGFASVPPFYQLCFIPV
pIC50: −log10 of the molar value.
measurement.type: pIC50

- CCc1c(C)nc(-c2ccc(F)s2)nc1Nc1ccc(CC(=O)O)cc1F: < 5.00

====

target: Cytochrome P450 3A4 (Homo sapiens, UniProt P08684)
Sequence (P08684 whole entry): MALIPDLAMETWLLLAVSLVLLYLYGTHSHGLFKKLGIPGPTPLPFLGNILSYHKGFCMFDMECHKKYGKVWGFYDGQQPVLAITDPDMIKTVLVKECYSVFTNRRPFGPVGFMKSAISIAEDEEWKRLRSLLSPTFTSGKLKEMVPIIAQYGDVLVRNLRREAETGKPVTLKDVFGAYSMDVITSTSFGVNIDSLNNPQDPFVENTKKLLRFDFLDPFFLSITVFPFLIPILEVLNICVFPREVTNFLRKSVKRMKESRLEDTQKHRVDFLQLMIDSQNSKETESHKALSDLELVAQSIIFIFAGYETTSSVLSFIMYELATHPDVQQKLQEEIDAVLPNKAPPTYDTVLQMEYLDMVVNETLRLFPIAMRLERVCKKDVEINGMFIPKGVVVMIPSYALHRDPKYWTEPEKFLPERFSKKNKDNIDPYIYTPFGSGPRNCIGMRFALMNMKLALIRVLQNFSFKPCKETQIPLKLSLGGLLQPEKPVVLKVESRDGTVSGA
measurement.type: IC50

• CCc1c(C)nc(-c2ccc(Cl)s2)nc1Nc1ccc(CC(=O)O)cc1 = > 10 µM

====

assay: AUC (0 to infinity) in ferret at 2 mg/kg, po; assay type: ADME, organism-based, Mustela putorius furo; set-up: time infinity, dose 2 mg/kg, route oral; conditions: plasma
Each item that follows carries a reported AUC(0-inf).
measurement.type: AUC(0-inf) (µg·h/mL)

* CCc1c(C)nc(-c2ccc(F)s2)nc1Nc1ccc(CC(=O)O)cc1F | 341
* CCc1c(C)nc(-c2ccc(Cl)s2)nc1Nc1ccc(CC(=O)O)cc1 | 33.5

====

experiment: Cmax in ferret at 2 mg/kg, po; type: ADME, organism-based, Mustela putorius furo; design: dose 2 mg/kg, route oral; conditions: in vivo
measurement.type: Cmax (ng/mL)

- CCc1c(C)nc(-c2ccc(Cl)s2)nc1Nc1ccc(CC(=O)O)cc1: 4500
- CCc1c(C)nc(-c2ccc(F)s2)nc1Nc1ccc(CC(=O)O)cc1F: 14800

====

Overview of reported Cmax across a group of compounds:
assay: Cmax in mouse at 2 mg/kg, po; assay type: ADME, organism-based; set-up: dose 2 mg/kg, route oral; conditions: in vivo
measurement.type: Cmax (ng/mL)

- CCc1c(C)nc(-c2ccc(F)s2)nc1Nc1ccc(CC(=O)O)cc1F: 10900
- CCc1c(C)nc(-c2ccc(Cl)s2)nc1Nc1ccc(CC(=O)O)cc1: 8700

====

# Lookup of reported IC50 keyed by entry
biological target: UniProt Q08499
Sequence (Q08499 whole entry): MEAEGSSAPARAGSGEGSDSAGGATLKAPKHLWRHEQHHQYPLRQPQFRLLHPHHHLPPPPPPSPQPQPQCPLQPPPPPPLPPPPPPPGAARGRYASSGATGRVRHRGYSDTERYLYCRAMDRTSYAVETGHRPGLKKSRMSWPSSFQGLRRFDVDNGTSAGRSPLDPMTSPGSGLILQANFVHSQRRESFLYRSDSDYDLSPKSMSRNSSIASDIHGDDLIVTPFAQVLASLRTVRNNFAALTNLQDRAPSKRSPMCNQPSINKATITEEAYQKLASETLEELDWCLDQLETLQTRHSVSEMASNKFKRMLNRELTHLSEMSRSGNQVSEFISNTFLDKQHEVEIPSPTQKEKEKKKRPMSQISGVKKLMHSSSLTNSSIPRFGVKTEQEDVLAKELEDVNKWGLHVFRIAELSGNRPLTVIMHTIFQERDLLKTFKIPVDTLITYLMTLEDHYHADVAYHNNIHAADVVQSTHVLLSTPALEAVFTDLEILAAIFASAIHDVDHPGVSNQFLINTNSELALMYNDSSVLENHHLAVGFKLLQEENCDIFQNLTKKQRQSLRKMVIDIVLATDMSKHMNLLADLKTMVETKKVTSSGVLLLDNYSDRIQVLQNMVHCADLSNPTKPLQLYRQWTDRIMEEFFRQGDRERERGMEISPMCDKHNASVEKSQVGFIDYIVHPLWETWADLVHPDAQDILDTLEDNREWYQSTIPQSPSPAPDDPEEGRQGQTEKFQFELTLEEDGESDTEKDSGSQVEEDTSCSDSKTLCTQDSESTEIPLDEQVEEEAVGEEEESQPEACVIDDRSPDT
measurement.type: IC50 (µM)

* CCc1c(C)nc(-c2cc(Br)c(C)s2)nc1Nc1ccc(CC(=O)O)cc1 | 2.9
* C=CCc1c(C)nc(-c2ccc(C)cc2)nc1Nc1ccc(CC(=O)O)cc1 | 11
* C=CCc1c(C)nc(-c2ccc(OC)s2)nc1Nc1ccc(C(=O)O)cc1 | 0.76
* CCc1c(C)nc(-c2ccc(SC)s2)nc1Nc1ccc(CC(=O)O)cc1 | 1.5
* Cc1nc(-c2ccccc2)nc(Nc2ccc(C(=O)O)cc2)c1C=O | 1.5

====

target: 3',5'-cyclic-AMP phosphodiesterase 4B (Homo sapiens)
Sequence (Q07343 whole entry): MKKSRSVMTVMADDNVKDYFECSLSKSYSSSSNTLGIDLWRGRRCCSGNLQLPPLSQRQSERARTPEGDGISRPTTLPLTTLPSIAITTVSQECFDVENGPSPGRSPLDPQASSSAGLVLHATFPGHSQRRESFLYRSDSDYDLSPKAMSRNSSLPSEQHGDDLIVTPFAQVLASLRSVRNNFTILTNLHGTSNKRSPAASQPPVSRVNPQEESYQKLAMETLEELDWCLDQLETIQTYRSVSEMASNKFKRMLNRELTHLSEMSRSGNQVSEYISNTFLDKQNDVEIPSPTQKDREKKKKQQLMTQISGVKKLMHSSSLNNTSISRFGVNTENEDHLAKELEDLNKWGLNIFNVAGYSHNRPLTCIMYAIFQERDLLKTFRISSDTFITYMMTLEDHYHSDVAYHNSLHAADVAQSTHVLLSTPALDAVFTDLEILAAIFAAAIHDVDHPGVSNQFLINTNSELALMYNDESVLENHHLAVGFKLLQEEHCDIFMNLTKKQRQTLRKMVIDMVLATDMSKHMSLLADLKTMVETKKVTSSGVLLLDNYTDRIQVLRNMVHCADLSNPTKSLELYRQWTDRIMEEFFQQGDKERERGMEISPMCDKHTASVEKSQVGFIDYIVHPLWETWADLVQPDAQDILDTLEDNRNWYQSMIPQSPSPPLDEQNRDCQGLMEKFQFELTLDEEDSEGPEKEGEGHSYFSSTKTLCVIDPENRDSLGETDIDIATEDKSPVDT
measurement.type: IC50

* Cc1nc(-c2ccccc2)nc(Nc2ccc(C(=O)O)cc2)c1C=O | 300 nM
* C=CCc1c(C)nc(-c2cccc(C)c2)nc1Nc1ccc(CC(=O)O)cc1 | 1200 nM
* C=CCc1c(CC)nc(-c2ccccc2)nc1Nc1ccc(C(=O)O)cc1 | 34 nM
* Cc1nc(-c2ccccc2)nc(Nc2ccc(C(=O)O)cc2)c1C | 430 nM
* CCc1c(C)nc(-c2ccc(F)s2)nc1Nc1ccc(CC(=O)O)cc1F | 15 nM
* C=CCc1c(C)nc(-c2ccccc2)nc1Nc1ccc(CC(=O)O)cc1 | 1800 nM
* C=CCc1c(C)nc(-c2ccc(C)cc2)nc1Nc1ccc(CC(=O)O)cc1 | 940 nM
* C=CCc1c(Nc2ccc(C(=O)O)cc2)nc(-c2ccccc2)nc1C(C)C | > 1000 nM
* C=CCc1c(C)nc(-c2ccc(C)s2)nc1Nc1ccc(C(=O)O)cc1 | 150 nM
* Cc1nc(-c2ccccc2)nc(Nc2ccc(C(=O)O)cc2)c1C(C)C | > 1000 nM
* CCc1c(C)nc(-c2ccc(Cl)s2)nc1Nc1ccc(CC(=O)O)cc1 | 15 nM
* CCc1c(C)nc(-c2ccccc2)nc1Nc1ccc(C(=O)O)cc1 | 140 nM
